target: T1, ECD of rec. EGFR (human, UniProt P00533 25-645); test: SPR (BIAcore), chip coated with ECD of rec. EGFR
T1 construct: extracellular domain; also called human epidermal factor receptor (EGFR)
READOUT_TYPE: pKd
pKd here: minus log base 10 of the concentration, concentration in moles per litre.

## Task Quick check: pKd of Humanized LA22 (H1 + h2) (antibody, human IgG1, V domains shown, Human IgG1 / kappa constant regions; also called H1-LA22 / h2-LA22) VH: EVQLVESGGGLVQPGGSLRLSCESNEYEFPSHDMSWVRQAPGKGLEWVSAITSDGISTYYPDTMERRFTISRDNSKNTLYLQMNSLRAEDTAVYYCARHDWDEGFASWGQGTLVTVSS VL: DVVMTQSPLSLPVTLGQPASISCRSSQSLVHSNGNTYLHWYQQRPGQSPRLLIYKVSNRFSGVPDRFSGSGSGTDFTLKISRVEAEDVGIYFCSQSSHVPPAFGGGTKLEIK ?
## Result 7.85

## Task Check Mouse monoclonal antibody LA22 (antibody, V domains shown, Mouse hybridoma antibody (ATCC deposit, US 5,459,061); the mouse constant regions are not; also called mLA22; mouse LA22) VH: EVQLVESGGGLVQPGESLKLSCESNEYEFPSHDMSWVRKTPEERLELVAAITSDGISTYYPDTMERRFLISRDNTKKTLYLQMSSLRSEDTALYYCSRHDWDEGFASWGQGTLVTVSA VL: DVVMTQTPLSLPVSLGDQASISCRSSQSLVHSNGNTYLHWYLQKPGQSPKLLIYKVSNRFSGVPDRFSGSGSGTDFTLKISRVEAEDLGIYFCSQSSHVPPAFGGGTKLEIK too.
## Result 8.70

## Task Check Humanized LA22 (H2 + h2) (antibody, human IgG1, V domains shown, Human IgG1 / kappa constant regions; also called H2-LA22 / h2-LA22) VH: EVQLVESGGGLVQPGGSLRLSCESNEYEFPSHDMSWVRQAPGKGLEWVSAITSDGISTYYPDTMERRFTISRDNTKKTLYLQMNSLRAEDTAVYYCARHDWDEGFASWGQGTLVTVSS VL: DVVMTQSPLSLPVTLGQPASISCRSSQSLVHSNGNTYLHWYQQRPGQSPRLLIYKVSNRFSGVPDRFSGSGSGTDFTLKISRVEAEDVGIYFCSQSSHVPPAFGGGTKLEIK too.
## Result 7.92

For the next question, use this binder.
## Task Quick check: pKd of Humanized LA22 (H3 + h2) (antibody, V domains shown, also called hLA22; hLA22 h2H3) VH: EVQLVESGGGLVQPGGSLRLSCASNEYEFPSHDMSWVRQTPGKGLEWVSAITSDGISTYYPDTMERRFTISRDNSKNTLYLQMSSLRAEDTAVYYCARHDWDEGFASWGQGTLVTVSS VL: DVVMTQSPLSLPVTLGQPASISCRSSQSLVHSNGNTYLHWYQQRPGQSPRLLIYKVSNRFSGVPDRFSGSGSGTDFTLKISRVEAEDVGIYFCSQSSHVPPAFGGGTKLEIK ?
## Result 8.64

Where do the numbers come from? From patent US20190010227A1.
